System: CAKI-1 renal
Experiment: NCI tumour cell line growth inhibition, 48 h; in the data active = GI50 below about 0.43 µM; inactive = the rest
Possible outcomes: active, inactive

INSERT INTO measurements (compound, assigned_class) VALUES
  ('CC1=C(/C=C/C(C)=C/C=C/C(C)=C/C(=O)Nc2ccc(O)cc2)C(C)(C)CCC1', 'inactive'),
  ('COc1ccc(-c2nn(-c3cccc(NC(=O)Nc4cc(C(F)(F)F)cc(C(F)(F)F)c4)c3)cc2-c2ccncc2)cc1Cl', 'inactive'),
  ('CCN(CC)CCCC(Nc1c2ccc(Cl)cc2nc2ccc(OC)cc12)c1ccc(F)cc1 (centres undefined)', 'inactive'),
  ('COc1cc2c3c(n(CCN(C)C)c(=O)c2cc1OC)-c1cc2c(cc1C3=O)OCO2', 'inactive'),
  ('C/C(=C\CCc1ccoc1)CC/C=C(\C)CCCN1CCC(CO)CC1', 'inactive'),
  ('O=C1C(Cl)=C(Nc2cccc(O)c2)C(=O)N1c1ccc(Cl)c(Cl)c1', 'inactive'),
  ('CC1OC(OC2CC(O)C3(CO)C4C(O)CC5(C)C(C6=CC(=O)OC6)CCC5(O)C4CCC3(O)C2)C(O)C(O)C1O (centres undefined)', 'active'),
  ('COc1cc(C2CC(c3cc(C)ccc3C)=NN2c2ccc(S(=O)(=O)NC(=O)NCc3ccccc3)cc2)cc(OC)c1OC (centres undefined)', 'inactive'),
  ('N#Cc1cccc(NC(=O)c2oc3ccccc3c2-c2cnn(-c3ccccc3)c2)c1', 'inactive');

---

TGI values by entry
System: SK-OV-3 ovarian
Assay: NCI tumour cell line growth inhibition, 48 h
Readout Label: TGI

INSERT INTO measurements (molecule, result) VALUES
  ('c1ccc2c3c([nH]c2c1)C1c2[nH]c4ccccc4c2CCN1CC3', '27.1 µM'),
  ('C#CCNC(=O)CC[C@]1(C)[C@H]2CC[C@@H]3[C@@H]([C@@](C)(O)CCC=C(C)C)CC[C@@]3(C)[C@]2(C)CC[C@H]1C(=C)C', '> 100 µM'),
  ('CCC1CC(=O)N(SCC(N)C(=O)O)C1=O (stereo unspecified)', '> 100 µM'),
  ('C[C@H]1CC(=O)C2=CCCC3(SCCCS3)[C@@H]2[C@H]1CO', '> 100 µM'),
  ('N#Cc1c(-c2ccccc2)cc(-c2ccccc2)n(CCCCC(=O)NO)c1=O', '5 µM'),
  ('CC(=O)OC1C(CCl)OC(N=[N+]=[N-])C(OC(C)=O)C1OC(C)=O (stereo unspecified)', '> 100 µM');

---

System: UO-31 renal
Experiment: NCI tumour cell line growth inhibition, 48 h
Readout Label: TGI

INSERT INTO measurements (molecule, result) VALUES
  ('Cc1ccc(-n2c(Cn3nnc(-c4cccnc4)n3)nn(C3OC(COC(=O)c4ccccc4)C(OC(=O)c4ccccc4)C3OC(=O)c3ccccc3)c2=S)cc1 (centres undefined)', '> 100 µM'),
  ('COc1ccc(-n2c(C)nc3ccc(NC4OCC(O)C(O)C4O)cc3c2=O)cc1 (centres undefined)', '> 100 µM'),
  ('c1ccc2c3c([nH]c2c1)C1c2[nH]c4ccccc4c2CCN1CC3', '18.5 µM'),
  ('Cc1nc(/N=C(\N)NC(=O)Nc2ccccc2Cl)sc1C', '6.49 µM'),
  ('O=C(Nc1ccc(Cl)cc1)/C(Cc1cccc[n+]1[O-])=N\Nc1ccc([N+](=O)[O-])cc1[N+](=O)[O-]', '> 100 µM'),
  ('CC(=O)O[C@H]1CC[C@@]2(C)C(=CC[C@@H]3[C@@H]2CC[C@]2(C)C(=N/O)/C(=C/c4ccc([N+](=O)[O-])cc4)C[C@@H]32)C1', '26 µM'),
  ('CC(C)(C)OC(=O)NC(Cc1cnc[nH]1)C(=O)N1CCCC1C(N)=O (centres undefined)', '> 100 µM'),
  ('Cc1ccc(S(=O)(=O)Oc2ccc(OS(=O)(=O)c3ccc(C)cc3)c3c2C(=O)c2ccccc2C3=O)cc1', '> 100 µM'),
  ('COC(=O)C1C2C=CC(C2)N1S(=O)(=O)c1ccccc1 (centres undefined)', '> 100 µM');

---

System: SR leukemia
Experiment: NCI tumour cell line growth inhibition, 48 h
TGI values by entry
Readout Label: TGI

INSERT INTO assay_data (compound, readout_label, result) VALUES
  ('CC(=O)OCC1OC(OC2=C(CC=C(Cl)Cl)C(=O)c3ccccc3C2=O)C(OC(C)=O)C(OC(C)=O)C1OC(C)=O (stereo not given)', 'TGI', '> 100 µM'),
  ('Cc1ccc2c(c1)[nH]c(=S)n2C=C1C(=O)CC(C)(C)CC1=O', 'TGI', '> 100 µM'),
  ('CCCCNC(=O)Nc1c(C(N)=O)c2n(c1C(=O)OCC)CCCCC2', 'TGI', '> 100 µM'),
  ('CCOC(=O)C(=O)N=Nc1nc2c(O)c3ccccc3c(O)c2s1', 'TGI', '> 100 µM'),
  ('CCOC(=O)c1cccc([N+](=O)[O-])c1N', 'TGI', '> 100 µM'),
  ('C/C(=C\CCc1ccoc1)CC/C=C(\C)CCCN1CCC(CO)CC1', 'TGI', '4.29 µM'),
  ('COc1ccc(C2ON(c3ccccn3)CC=C2C)cc1 (stereo not given)', 'TGI', '> 100 µM'),
  ('O=C1c2ccccc2-c2c1c1ccccc1c(=O)n2CCCN1CCN(CCCn2c3c(c4ccccc4c2=O)C(=O)c2ccccc2-3)CC1', 'TGI', '17.9 µM'),
  ('CC(=O)OCC12C(OC(C)=O)C[C@@H](C)C3(CC(c4ccoc4)OC3=O)C1CCC(O)C21CO1 (stereo not given in full)', 'TGI', '> 100 µM'),
  ('N#Cc1c(-c2ccccc2)cc(-c2ccccc2)n(CCCCC(=O)NO)c1=O', 'TGI', '8.37 µM');

---

Test system: SNB-19 CNS
Test: NCI tumour cell line growth inhibition, 48 h
Where a SMILES comes first, the peptide text is derived from it. [ ]: non-standard residue; d: D form. The star is where a group is joined. ξ: configuration not given here. NMeF = CN[C@@H](Cc1ccccc1)C(=O)O; ξNMeV = CNC(C(=O)O)C(C)C; Boc = CC(C)(C)OC(=O)*; OBn = c1ccc(CO*)cc1
TGI values by entry
Readout Label: TGI

INSERT INTO measurements (compound, readout_label, result) VALUES
  ('COc1ccc(C(C2C(=O)N(C)C(=O)N(C)C2=O)C(F)(F)C(=O)N(C)C)cc1 (stereo not given)', 'TGI', '> 100 µM'),
  ('COc1ccc(C2ON(c3ccccn3)CC=C2C)cc1 (stereo not given)', 'TGI', '> 100 µM'),
  ('CCOC(=O)c1cc(C2CCN(Cc3ccccc3)C2=O)c(C(=O)C(=[N+]=[N-])C(C)=O)[nH]1 (stereo not given)', 'TGI', '> 100 µM'),
  ('COc1ccccc1S(=O)Nc1ccccc1 (stereo not given)', 'TGI', '> 100 µM'),
  ('O=C1c2ccccc2-c2c1c1ccccc1c(=O)n2CCCN1CCN(CCCn2c3c(c4ccccc4c2=O)C(=O)c2ccccc2-3)CC1', 'TGI', '> 100 µM'),
  ('CN(C)CCCNc1nccc(-c2c(-c3ccc(F)cc3)nn3cc(C(F)(F)F)ccc23)n1', 'TGI', '> 25 µM'),
  ('CN(c1ccccc1)C1C(=O)N(c2ccccc2)C1/C=C/c1ccccc1 (stereo not given)', 'TGI', '> 100 µM'),
  ('CC(C)c1cccc(C(C)C)c1NC(=O)C(=O)C(C(=O)c1ccc2ccccc2c1)C1OC(=O)c2ccccc21 (stereo not given)', 'TGI', '> 100 µM'),
  ('CC(C)C(C(=O)N1CCC[C@@H]1C(=O)OCc1ccccc1)N(C)C(=O)C(C(C)C)N(C)C(=O)[C@H](Cc1ccccc1)N(C)C(=O)[C@H](NC(=O)OC(C)(C)C)C(C)C (stereo not given in full) (Boc-[dV][NMeF][ξNMeV][ξNMeV][dP]-OBn)', 'TGI', '> 100 µM'),
  ('CC(C)[Si](OC1=C(C(=O)N(C)c2ccccc2Cl)CCC1)(C(C)C)C(C)C', 'TGI', '30 µM'),
  ('COC(=O)N/N=C/c1oc(-c2ccccc2)c(-c2ccccc2)c1[N+](=O)[O-]', 'TGI', '> 100 µM'),
  ('CSc1nc2c(N)ncnc2n1C', 'TGI', '> 100 µM'),
  ('O=C(OCC12CC3CC(CC(C3)C1)C2)c1ccc(NCc2cc(O)ccc2O)cc1', 'TGI', '11 µM'),
  ('O=C(CCCc1ccccn1)c1ccccc1', 'TGI', '> 100 µM'),
  ('COc1cc([C@@H]2c3cc4c(cc3[C@@H](O[C@@H]3O[C@@H]5CO[C@@H](c6cccs6)O[C@H]5[C@H](O)[C@H]3O)[C@H]3COC(=O)[C@H]23)OCO4)cc(OC)c1O', 'TGI', '> 100 µM'),
  ('C[C@H]1CC(=O)C2=CCCC3(SCCCS3)[C@@H]2[C@H]1CO', 'TGI', '> 100 µM'),
  ('COC(=O)C(Cc1ccccc1I)C1=CCC2(CC1)OCCO2 (stereo not given)', 'TGI', '96.8 µM'),
  ('COc1cc(C(N)=O)cc(NC(=O)/C=C/c2ccccc2)c1OC', 'TGI', '> 100 µM'),
  ('COC(=O)C1CCC(Nc2cccc(C(F)(F)F)c2)=N1 (stereo not given)', 'TGI', '> 100 µM'),
  ('COc1cc2c(cc1OC)C1(c3ccccc3)CN(C2)Cc2cc(OC)c(OC)cc21', 'TGI', '> 100 µM'),
  ('NCC1OC(OC2C(CO)OC(OC3C(O)C(N)CC(N)C3OC3OC(CO)C(O)C(O)C3N)C2O)C(N)C(O)C1O (stereo not given)', 'TGI', '> 50 µg/mL'),
  ('COP1(=O)NCc2ncccc2O1 (stereo not given)', 'TGI', '> 100 µM'),
  ('O=C1c2nn(-c3ccccc3)nc2C(c2ccccc2)N1c1ccccc1 (stereo not given)', 'TGI', '> 100 µM'),
  ('O=C(Nc1ccc(Cl)cc1)/C(Cc1cccc[n+]1[O-])=N\Nc1ccc([N+](=O)[O-])cc1[N+](=O)[O-]', 'TGI', '> 100 µM'),
  ('COc1cc2cc[n+]3c4cc(OC)c(OC)cc4c(C)cc3c2cc1OC', 'TGI', '> 100 µM'),
  ('CC1(C)CCc2cc3c(-c4ccccc4)cc(=O)oc3cc2O1', 'TGI', '> 100 µM'),
  ('C=C1CC(Cn2cc(C)c(=O)[nH]c2=O)(c2ccc(-c3ccccc3)cc2)OC1=O (stereo not given)', 'TGI', '27.4 µM'),
  ('OCC1OC(n2nc(-c3ccccc3)nc2-c2cnccn2)C(O)C1O (stereo not given)', 'TGI', '> 100 µM'),
  ('O=c1c2cc(Br)cc(Br)c2[nH]c(=S)n1-c1ccccc1', 'TGI', '> 100 µM'),
  ('COC(=O)/C=C1/N=C(N(C)/N=C/c2ccccc2)NC1=O', 'TGI', '> 100 µM'),
  ('CCCN(CCC)CCCNC(=O)c1cc2c(-c3ccc(OC)c(OC)c3)nn(C)c2s1', 'TGI', '> 100 µM'),
  ('C/C(=C\CCc1ccoc1)CC/C=C(\C)CCCN1CCC(CO)CC1', 'TGI', '19.4 µM'),
  ('O=C(O)C#CCO', 'TGI', '> 100 µM'),
  ('CC1=C(c2cc(C(=O)Nc3ccc(Cl)c(Cl)c3)nc(N)n2)Sc2ccccc2N1', 'TGI', '> 100 µM'),
  ('N#CC1CCN2N=C(c3ccccc3)SC12c1ccccc1 (stereo not given)', 'TGI', '> 100 µM'),
  ('O=c1cc(-c2ccccc2)oc2ccc(Oc3nnnn3-c3ccccc3)cc12', 'TGI', '> 82.6 µM'),
  ('CC(=O)OC1C(CCl)OC(N=[N+]=[N-])C(OC(C)=O)C1OC(C)=O (stereo not given)', 'TGI', '> 100 µM'),
  ('CCN(CC)Cc1nc(C2CCC([N+](=O)[O-])O2)no1 (stereo not given)', 'TGI', '87.8 µM'),
  ('O=C(N/N=C1/C(=O)c2c3ccccc3cc3cccc1c23)c1cccc(Cl)c1', 'TGI', '> 100 µM'),
  ('Cc1ccc(-n2c(Cn3nnc(-c4cccnc4)n3)nn(C3OC(COC(=O)c4ccccc4)C(OC(=O)c4ccccc4)C3OC(=O)c3ccccc3)c2=S)cc1 (stereo not given)', 'TGI', '> 100 µM');
